# RUN_DESCRIPTION: Identification of proteins required for the processing of the EWS-FLI1 nascent transcript;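 note: robust z of luciferase light less the median z of siRNAs with the same seed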
# CONDITIONS: TC32 Ewing sarcoma NR0B1-luc vs CMV-luc, 48 h; screened at 20 nM (by protocol)
Over roughly 59,000 sequences, the read-out has its median near -0.00055; the lowest 2% begin near -2. The sample as a whole holds a higher share of the lowest values than the screen did.
Entry flag: 1 if seed-corrected z-score reaches -0.6; -1 if it does not.

Input line: Can UAGUUCAUAAUCCAAGUCC against COL6A3 be said to have seed-corrected z-score at or above -0.6?
Output line: 1

Input line: Can UUCUUCAUCAGCUUAACCG against C1QTNF4 be said to have seed-corrected z-score at or above -0.6?
Output line: 1

Input line: Can UACCGGUCGAGGCUGAUCA against HRH2 be said to have seed-corrected z-score at or above -0.6?
Output line: -1

Input line: Can UCACAUGCAUCAAUUUUCG against NDUFB5 be said to have seed-corrected z-score at or above -0.6?
Output line: 1

Input line: Can AUACGUAUCCCGGACGCAG against SLC25A47 be said to have seed-corrected z-score at or above -0.6?
Output line: 1

Input line: Can UAUUCACCCAGAACUGUUG against CYP24A1 be said to have seed-corrected z-score at or above -0.6?
Output line: 1

Input line: Can UGGUUGUUCAACGCUGUAG against MEA1 be said to have seed-corrected z-score at or above -0.6?
Output line: 1

Input line: Can UAUUGAUCUGCCGAGGAGC against CYFIP1 be said to have seed-corrected z-score at or above -0.6?
Output line: 1

Input line: Can AAGGUGGUAGGCACUUUGG against MAVS be said to have seed-corrected z-score at or above -0.6?
Output line: -1

Input line: Can AAAACGAUCAAAAUCUGUC against RPL14P1 be said to have seed-corrected z-score at or above -0.6?
Output line: -1

Input line: Can UUAAUGAUAAACACGUCUU against LMX1A be said to have seed-corrected z-score at or above -0.6?
Output line: 1

###

# RUN_DESCRIPTION: Identification of proteins required for the processing of the EWS-FLI1 nascent transcript;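 note: robust z of luciferase light less the median z of siRNAs with the same seed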
# CONDITIONS: TC32 Ewing sarcoma NR0B1-luc vs CMV-luc (EWS-FLI1 target promoter against control promoter), 48 h; screened at 20 nM (by protocol)
In all, about 59,000 sequences were measured (the read-out: median about -0.00055, lowest 2% from about -2 on). The entries come from a sample that favours the lowest values as a whole.
Exercise: state measured seed-corrected z-score for each of the sequences provided.

Input line: I have this sequence here, AAAGAGAUAAUGUUCCUCC against FAM180B , and I need its recorded seed-corrected z-score.
Output line: 0.869

Input line: I have this sequence here, UUGUCAAACAGGACUGAGU against AZIN2 , and I need its recorded seed-corrected z-score.
Output line: -0.00443

Input line: I have this sequence here, CAAUACUCCAGCAUCAGGC against OPA3 , and I need its recorded seed-corrected z-score.
Output line: -2.35

Input line: I have this sequence here, AUGGUGUCAAGAAUAAGGC against ROPN1L , and I need its recorded seed-corrected z-score.
Output line: 1.14

Input line: I have this sequence here, UUAUGGAAUGUCGUUUUCC against FAM228A , and I need its recorded seed-corrected z-score.
Output line: 0.0891

Input line: I have this sequence here, AAUUGUCGUAGUCAGUAUC against PAEP , and I need its recorded seed-corrected z-score.
Output line: -0.99

Input line: I have this sequence here, UUAAAUGUAAGCAGGUUUC against CYTL1 , and I need its recorded seed-corrected z-score.
Output line: 0.276

Input line: I have this sequence here, UACUUAACCGGGAAGCUAC against NUMB , and I need its recorded seed-corrected z-score.
Output line: -0.172

Input line: I have this sequence here, UACAGCAUCGUCUUCUACC against TMEM246 , and I need its recorded seed-corrected z-score.
Output line: 0.565

Input line: I have this sequence here, UGUUGUCGCAGUGAGGAGC against KIAA0141 , and I need its recorded seed-corrected z-score.
Output line: -2

Input line: I have this sequence here, UGUUAUCCGAGUAUAAUAC against PSMD12 , and I need its recorded seed-corrected z-score.
Output line: -2.56

Input line: I have this sequence here, UACGUUUUCAGAGUAUCAC against PDCD10 , and I need its recorded seed-corrected z-score.
Output line: 0.491

Input line: I have this sequence here, AGCUUGAGAAUUUACUUGG against HIST1H2BL , and I need its recorded seed-corrected z-score.
Output line: -2.21

Input line: I have this sequence here, UACACUAGCAUUGCACUCC against ARHGEF19 , and I need its recorded seed-corrected z-score.
Output line: 0.989

Input line: I have this sequence here, AAUACUUGAAGGAAUAGGC against SUPT6H , and I need its recorded seed-corrected z-score.
Output line: -5.83

Input line: I have this sequence here, GAUGGAGGUGCCAUGGUUG against ZSWIM3 , and I need its recorded seed-corrected z-score.
Output line: -0.304

Input line: I have this sequence here, UAUGCACAAAGUUUGUGGG against CDC42SE2 , and I need its recorded seed-corrected z-score.
Output line: -0.65

Input line: I have this sequence here, UUUCGAUCUCUGUUAAGCC against C2orf40 , and I need its recorded seed-corrected z-score.
Output line: 0.448

Input line: I have this sequence here, UCAUAGUCCAGGGUAAGGC against LRP4 , and I need its recorded seed-corrected z-score.
Output line: -1.11

Input line: I have this sequence here, AAAGUUGCAGUUGGUCUCC against ZACN , and I need its recorded seed-corrected z-score.
Output line: -3.49

Input line: I have this sequence here, UGACUAUUAAGAUAUGAAG against ZNF121 , and I need its recorded seed-corrected z-score.
Output line: -2.14

Input line: I have this sequence here, UACGGUCACUGAUAGUUGG against CYP17A1 , and I need its recorded seed-corrected z-score.
Output line: -0.42

Input line: I have this sequence here, UGUUAGCUCAGUCACGUAG against GBP7 , and I need its recorded seed-corrected z-score.
Output line: 0.141

Input line: I have this sequence here, UUCUUUUUCAAACAGCUCU against ISY1 , and I need its recorded seed-corrected z-score.
Output line: -1.17

Input line: I have this sequence here, AUUGAUGUAUGACUCUUCC against DDX55 , and I need its recorded seed-corrected z-score.
Output line: -0.91

Input line: I have this sequence here, AUGUGGGUAAAAACUUGCU against NGRN , and I need its recorded seed-corrected z-score.
Output line: -2.09

Input line: I have this sequence here, UUUUCAUCUGGUAAAAGGG against FAM13C , and I need its recorded seed-corrected z-score.
Output line: -1.06

Input line: I have this sequence here, AAAGGCUUAAUUUUUACCU against TOMM7 , and I need its recorded seed-corrected z-score.
Output line: 1.3

Input line: I have this sequence here, UUGUGAACAGUUGAGGUGC against OSBP2 , and I need its recorded seed-corrected z-score.
Output line: -0.0205

Input line: I have this sequence here, UUUGGGAAAGUAGCUAUCA against LINC01124 , and I need its recorded seed-corrected z-score.
Output line: -2.24

Input line: I have this sequence here, UCUGGGCGUAGACAACUGC against CNTFR , and I need its recorded seed-corrected z-score.
Output line: -2.12

Input line: I have this sequence here, AUAUUAAGCAGACAACUCC against DIRC2 , and I need its recorded seed-corrected z-score.
Output line: 0.227

Input line: I have this sequence here, UAGCUGUGUGGAUCAGUGC against LOC642502 , and I need its recorded seed-corrected z-score.
Output line: -2.62

Input line: I have this sequence here, UAAGGGACAUCUAAGGAAC against MAML1 , and I need its recorded seed-corrected z-score.
Output line: -1.38

Input line: I have this sequence here, UCAUCGUCUACUUCCAUUG against BPTF , and I need its recorded seed-corrected z-score.
Output line: -1.63

Input line: I have this sequence here, AGACUGAUGGUAGUGGUGG against PRRT1 , and I need its recorded seed-corrected z-score.
Output line: -0.57

Input line: I have this sequence here, UGCUGGUUCAACUCAUCGC against DLGAP3 , and I need its recorded seed-corrected z-score.
Output line: -2.34

Input line: I have this sequence here, UAUGCAUAAACGGUCUUCA against SH3BGR , and I need its recorded seed-corrected z-score.
Output line: -0.25

Input line: I have this sequence here, AUGGUGGUAAUUACGCUGC against SLCO5A1 , and I need its recorded seed-corrected z-score.
Output line: -0.993

Input line: I have this sequence here, UGAACAUACAUCUUGAAUC against SRP19 , and I need its recorded seed-corrected z-score.
Output line: 0.739

Input line: I have this sequence here, UUUUGAGCCUCAGCACUCC against RGL3 , and I need its recorded seed-corrected z-score.
Output line: -0.0402

Input line: I have this sequence here, UAAGGUUAGGUUAGGAAUG against SH3BGRL3 , and I need its recorded seed-corrected z-score.
Output line: -0.0213
